Molecular target: Ephrin type-B receptor 4 (Homo sapiens) (UniProt P54760);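 also: each value is a mean percent inhibition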
Sequence (whole entry): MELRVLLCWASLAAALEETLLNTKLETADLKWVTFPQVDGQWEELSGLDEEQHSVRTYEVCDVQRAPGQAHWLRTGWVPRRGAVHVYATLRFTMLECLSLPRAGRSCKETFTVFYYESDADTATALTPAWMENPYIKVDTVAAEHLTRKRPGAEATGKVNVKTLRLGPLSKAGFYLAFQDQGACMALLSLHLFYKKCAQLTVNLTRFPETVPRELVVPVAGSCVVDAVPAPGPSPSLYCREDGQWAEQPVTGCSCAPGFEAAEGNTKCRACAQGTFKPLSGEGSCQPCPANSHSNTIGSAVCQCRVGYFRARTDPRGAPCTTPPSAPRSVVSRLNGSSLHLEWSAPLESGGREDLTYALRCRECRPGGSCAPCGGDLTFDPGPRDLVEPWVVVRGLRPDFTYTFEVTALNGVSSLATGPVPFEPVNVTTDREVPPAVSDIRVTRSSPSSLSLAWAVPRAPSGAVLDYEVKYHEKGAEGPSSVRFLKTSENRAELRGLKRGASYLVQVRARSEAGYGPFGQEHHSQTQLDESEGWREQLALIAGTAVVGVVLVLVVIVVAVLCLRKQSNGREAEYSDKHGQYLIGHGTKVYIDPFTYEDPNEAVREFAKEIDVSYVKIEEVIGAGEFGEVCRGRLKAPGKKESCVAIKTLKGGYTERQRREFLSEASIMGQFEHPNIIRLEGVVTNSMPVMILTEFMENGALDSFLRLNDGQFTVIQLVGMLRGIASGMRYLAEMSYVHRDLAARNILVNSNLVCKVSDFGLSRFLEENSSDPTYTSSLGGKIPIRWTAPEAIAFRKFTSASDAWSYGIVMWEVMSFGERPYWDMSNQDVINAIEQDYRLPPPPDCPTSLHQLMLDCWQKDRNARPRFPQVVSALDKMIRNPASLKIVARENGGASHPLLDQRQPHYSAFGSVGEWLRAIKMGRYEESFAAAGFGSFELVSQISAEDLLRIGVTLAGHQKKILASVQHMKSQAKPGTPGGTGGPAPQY
Conditions: at 0.1 µM
property-label: inhibition (%)
Give the quantity in %, number only.

Solved entries (count: 3):
chemical-structure	inhibition, %
COc1cc(C)c(N(C)C(=O)CN(C)C)cc1Nc1nc(Nc2cccc(F)c2C(N)=O)c2cc[nH]c2n1	-2.25
COc1cc(N2CCN(C(C)C)CC2)ccc1Nc1nc(Nc2ccc(F)cc2C(=O)NC[C@@H](O)CO)c2cc[nH]c2n1	-2.73
CN1CCN(CCCNc2nc3ccc(Oc4ccc(NC(=O)Nc5cc(C(F)(F)F)ccc5F)cc4)cc3[nH]2)CC1	-1.44

Next:
Q. Please look up its inhibition: COc1cc2ncn(-c3cc(OCc4ccccc4C(F)(F)F)c(C(C)=O)s3)c2cc1OC
A. 0.64

----------
Reported inhibition values for a set of compounds
target: Protein kinase C beta type (Homo sapiens); conditions: at 1 µM;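 also: mean inhibition value, enzyme form tested was the PKC-beta1 splice variant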
Description: GSK_PKIS: PKC-beta1 (splice variant) mean inhibition at 1 uM [Nanosyn]
Give the quantity in %, number only.

chemical-structure	units-symbol	inhibition
CN(C)CCCNc1nccc(-c2c(-c3ccc(F)cc3)nn3cc(C(F)(F)F)ccc23)n1	%	0.97
CN(c1ccc(NC(=O)Nc2c(Cl)cccc2Cl)cc1)c1ccnc(Nc2cccc(CS(C)(=O)=O)c2)n1	%	1.35
O=C1Nc2ccc(I)cc2C1=Cc1cc(Br)c(O)c(Br)c1	%	1.41
O=C(Nc1n[nH]c2nc(-c3ccc(O)cc3)c(Br)cc12)C1CC1	%	36.5
Fc1ccc(-c2ncn(C3CCNCC3)c2-c2ccnc(Oc3ccc(F)c(F)c3)n2)cc1	%	3.21

Q. Please look up its inhibition: C[C@@H](Oc1cc(-n2cnc3ccc(OCC4CCN(C)CC4)cc32)sc1C(N)=O)c1ccccc1Cl
A. 3.67
